# systemName: T1, human glycophorin A on human red blood cells or red blood cell membranes (human, UniProt P02724 20-150)
# T1 construct: whole, on cells; also called hRBC; human RBC membranes
# T1 sequence (looked up): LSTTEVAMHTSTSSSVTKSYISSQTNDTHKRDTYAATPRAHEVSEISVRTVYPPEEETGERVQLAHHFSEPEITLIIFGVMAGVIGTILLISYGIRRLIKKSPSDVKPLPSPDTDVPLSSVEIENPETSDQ
# testName: SPR (Biacore), Fab over human RBC membranes, 1:1 fit;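 note: human RBC membrane preparations captured on an L1 sensor surface, with antibody passed over them as analyte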
valueType: kon (M⁻¹ s⁻¹)

[[record]]
binder = "TPP-5840, Hu6C12-24 Fab variant VL: (S24R, A26S, S49A, P54Q, F95Y); VH: (L70M, T72R) (Fab, V domains shown, Built on the parental Fab TPP-4935) VH: EVQLVQSGAEVKKPGASVKVSCKASGYTFTTYTIHWVRQAPGQGLEWIGYINPSSDYTRYNPKFKDRVTMTRDKSTSTAYMELRSLRSDDTAVYYCQTGTRDYWGQGTTVTVSS VL: DIQLTQSPSFLSASVGDRVTITCRASSSVSYIYWFQQKPGKAPKLLIYATSTLQSGVPSRFSGSGSGTEYTLTISSLQPEDFATYYCHQRNSFPYTFGQGTKLEIKR"
outputunit = "M⁻¹ s⁻¹"
resultvalue = "1.1e+06"

[[record]]
binder = "TPP-5836, Hu6C12-24 Fab variant VL: (S24R, A26S, S49A, P54Q, F95Y); VH: (I48M, L70M, T72R) (Fab, V domains shown, Built on the parental Fab TPP-4935) VH: EVQLVQSGAEVKKPGASVKVSCKASGYTFTTYTIHWVRQAPGQGLEWMGYINPSSDYTRYNPKFKDRVTMTRDKSTSTAYMELRSLRSDDTAVYYCQTGTRDYWGQGTTVTVSS VL: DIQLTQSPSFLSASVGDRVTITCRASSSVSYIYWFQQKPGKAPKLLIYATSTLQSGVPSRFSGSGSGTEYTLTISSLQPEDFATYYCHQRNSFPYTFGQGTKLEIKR"
outputunit = "M⁻¹ s⁻¹"
resultvalue = "1.2e+06"

